# Organism: Homo sapiens
# Assay Overview: Selectivity ratio of EC50 for human 5HT2B receptor to EC50 for human 5HT2C receptor
Measure: Ratio EC50

[
  {
    "Molecule": "NC[C@H]1C[C@@H]1c1cccc(Cl)c1Cl (relative stereo)",
    "Obs Value": 1.4
  },
  {
    "Molecule": "NC[C@H]1C[C@@H]1c1ccc(Cl)cc1Cl (relative stereo)",
    "Obs Value": 4.7
  },
  {
    "Molecule": "NC[C@@H]1C[C@H]1c1ccccc1 (relative stereo)",
    "Obs Value": 6
  },
  {
    "Molecule": "Cc1ccc([C@H]2C[C@@H]2CN)cc1 (relative stereo)",
    "Obs Value": 0.28
  },
  {
    "Molecule": "Cc1cccc([C@H]2C[C@@H]2CN)c1.Cl (relative stereo)",
    "Obs Value": 14
  },
  {
    "Molecule": "NC[C@H]1C[C@@H]1c1ccccc1O (relative stereo)",
    "Obs Value": 3.1
  },
  {
    "Molecule": "NC[C@@H]1C[C@H]1c1ccccc1Br (relative stereo)",
    "Obs Value": 3.7
  },
  {
    "Molecule": "NC[C@@H]1C[C@H]1c1ccccc1Br",
    "Obs Value": 2.9
  },
  {
    "Molecule": "NC[C@@H]1C[C@H]1c1ccccc1",
    "Obs Value": 3.4
  },
  {
    "Molecule": "NC[C@H]1C[C@@H]1c1cccc(O)c1 (relative stereo)",
    "Obs Value": 1.7
  },
  {
    "Molecule": "C#Cc1cccc([C@H]2C[C@@H]2CN)c1 (relative stereo)",
    "Obs Value": 1.4
  }
]
